Test system: Budding yeast (MLC30M strain)
TEST_PROTOCOL: Growth-inhibiting activity against yeast
Type: cell-based
STATED_CONDITIONS: Saccharomyces cerevisiae; MLC30M strain, 18 hours, absorbance at 600 nm; read-out: Yeast IC50
METRIC_NAME: IC50 (µg/mL)

- MOLECULE: "CCCC[C@H]1CC[C@]2(CC[C@H](C)[C@@H](C/C=C(C)/C=C/[C@H](O)[C@@H](C)/C=C/C(=O)OCC)O2)O[C@H]1/C=C/C(C)=C/C(=O)O [RM-T ethyl-ester]"
  METRIC_NAME: "IC50"
  MEASURE_UNIT: "µg/mL"
  INEQUALITY_OPERATOR: ">"
  ENDPOINT_RESULT: 50
- MOLECULE: "CCCCC1CCC(CCC(C)C(O)C/C=C(C)/C=C/C(O)C(C)/C=C/C(=O)O)OC1/C=C/C(C)=C/CC(O)CC (stereo not shown) [RM-A1b]"
  METRIC_NAME: "IC50"
  MEASURE_UNIT: "µg/mL"
  INEQUALITY_OPERATOR: ">"
  ENDPOINT_RESULT: 50
- MOLECULE: "CCCCC(CCC(O)CCC(C)C(O)C/C=C(C)/C=C/C(O)C(C)/C=C/C(=O)O)C(O)C/C=C(C)/C=C/C(=O)CC (stereo not shown) [RM-A2b]"
  METRIC_NAME: "IC50"
  MEASURE_UNIT: "µg/mL"
  INEQUALITY_OPERATOR: ">"
  ENDPOINT_RESULT: 50
- MOLECULE: "CC(/C=C/[C@H](O)[C@@H](C)/C=C/C(=O)O)=C\\C[C@H]1O[C@]2(CC[C@H](C)[C@H](/C=C/C(C)=C/C(=O)O)O2)CC[C@@H]1C [SF-B, spirofungin B, reference compound]"
  METRIC_NAME: "IC50"
  MEASURE_UNIT: "µg/mL"
  INEQUALITY_OPERATOR: "="
  ENDPOINT_RESULT: 4
- MOLECULE: "CCCCC(CCC(O)CCC(C)C(O)C/C=C(C)/C=C/C(O)C(C)/C=C/C(=O)O)C(O)/C=C/C(C)=C/C(=O)O (stereo not shown) [RM-A1e]"
  METRIC_NAME: "IC50"
  MEASURE_UNIT: "µg/mL"
  INEQUALITY_OPERATOR: "="
  ENDPOINT_RESULT: 48.2
- MOLECULE: "CC(/C=C/[C@H](O)[C@@H](C)/C=C/C(=O)O)=C\\C[C@H]1O[C@@]2(CC[C@H](C)[C@H](/C=C/C(C)=C/C(=O)O)O2)CC[C@@H]1C [SF-A, spirofungin A, reference compound]"
  METRIC_NAME: "IC50"
  MEASURE_UNIT: "µg/mL"
  INEQUALITY_OPERATOR: "="
  ENDPOINT_RESULT: 0.3
- MOLECULE: "CCCCC(CCC(O)CCC(C)C(O)C/C=C(C)/C=C/C(O)C(C)/C=C/C(=O)O)C(O)/C=C/C(C)=C/CC(O)CC (stereo not shown) [RM-A1a]"
  METRIC_NAME: "IC50"
  MEASURE_UNIT: "µg/mL"
  INEQUALITY_OPERATOR: ">"
  ENDPOINT_RESULT: 50

---

SYSTEM_NAME: Isoleucyl tRNA synthetase (Homo sapiens)
Construct: 10 μg protein (HT1080 cell lysate); endogenous in cells; host or cells: HT1080 cell lysate
Sequence (P41252 1-1262): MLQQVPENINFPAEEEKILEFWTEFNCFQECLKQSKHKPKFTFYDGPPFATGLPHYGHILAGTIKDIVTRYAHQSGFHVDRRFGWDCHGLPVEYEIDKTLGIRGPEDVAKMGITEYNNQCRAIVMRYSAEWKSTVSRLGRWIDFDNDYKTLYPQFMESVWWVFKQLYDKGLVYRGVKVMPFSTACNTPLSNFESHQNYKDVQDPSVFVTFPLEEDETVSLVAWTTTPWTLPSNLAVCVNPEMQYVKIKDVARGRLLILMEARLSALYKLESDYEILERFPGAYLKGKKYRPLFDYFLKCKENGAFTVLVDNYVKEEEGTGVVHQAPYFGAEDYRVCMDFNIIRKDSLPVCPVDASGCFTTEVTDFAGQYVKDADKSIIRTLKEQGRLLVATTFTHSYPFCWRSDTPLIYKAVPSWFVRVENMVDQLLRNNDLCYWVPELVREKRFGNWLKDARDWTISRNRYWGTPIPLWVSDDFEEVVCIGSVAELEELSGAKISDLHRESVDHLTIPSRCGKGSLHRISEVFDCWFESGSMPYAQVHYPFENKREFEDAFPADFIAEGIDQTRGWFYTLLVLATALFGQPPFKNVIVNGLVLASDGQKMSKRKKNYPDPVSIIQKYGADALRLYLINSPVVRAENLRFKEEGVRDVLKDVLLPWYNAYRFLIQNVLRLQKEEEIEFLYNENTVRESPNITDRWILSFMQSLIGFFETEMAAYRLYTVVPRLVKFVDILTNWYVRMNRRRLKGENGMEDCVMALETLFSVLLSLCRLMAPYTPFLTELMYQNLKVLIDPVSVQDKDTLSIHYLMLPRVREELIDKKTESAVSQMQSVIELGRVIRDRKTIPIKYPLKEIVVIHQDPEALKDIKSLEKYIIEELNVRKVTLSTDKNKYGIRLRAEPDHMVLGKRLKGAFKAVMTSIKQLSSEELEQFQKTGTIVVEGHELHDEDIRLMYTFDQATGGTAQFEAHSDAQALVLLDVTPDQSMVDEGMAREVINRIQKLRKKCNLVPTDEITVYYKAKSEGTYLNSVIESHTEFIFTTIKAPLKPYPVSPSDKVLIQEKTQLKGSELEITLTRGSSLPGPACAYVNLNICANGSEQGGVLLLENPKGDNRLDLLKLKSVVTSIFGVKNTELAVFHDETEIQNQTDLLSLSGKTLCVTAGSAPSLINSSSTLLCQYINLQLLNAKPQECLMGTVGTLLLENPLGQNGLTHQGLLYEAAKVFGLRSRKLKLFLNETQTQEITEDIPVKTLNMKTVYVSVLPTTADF
TEST_PROTOCOL: Inhibitory activity against isoleucyl tRNA synthetase
Format: biochemical
STATED_CONDITIONS: HT1080 cell lysate, [3H]isoleucine, 25° C., 20 minutes; read-out: IRS IC50 (converted)
# label = YES if IC50 < 9 nM else NO

- COMPOUND: "CCCC[C@H]1CC[C@]2(CC[C@H](C)[C@@H](C/C=C(C)/C=C/[C@H](O)[C@@H](C)/C=C/C(=O)OCC)O2)O[C@H]1/C=C/C(C)=C/C(=O)O [RM-T ethyl-ester]"
  SYSTEM_NAME: "Isoleucyl tRNA synthetase (Homo sapiens)"
  GROUP: "NO"
- COMPOUND: "CCCCC1CCC2(CCC(C)C(C/C=C(C)/C=C/C(O)C(C)/C=C/C(=O)O)O2)OC1/C=C/C(C)=C/CC(O)CC (centres unmarked) [RM-A1c]"
  SYSTEM_NAME: "Isoleucyl tRNA synthetase (Homo sapiens)"
  GROUP: "NO"
- COMPOUND: "CCCCC1CCC2(CCC(C)C(C/C=C(C)/C=C/C(O)C(C)/C=C/C(=O)O)O2)OC1/C=C/C(C)=C/C(=O)O (centres unmarked) [RM-T]"
  SYSTEM_NAME: "Isoleucyl tRNA synthetase (Homo sapiens)"
  GROUP: "YES"
- COMPOUND: "CCCCCC[C@@]1(OC(=O)CCC(=O)O)CC[C@]2(CC[C@H](C)[C@@H](C/C=C(C)/C=C/[C@H](O)[C@@H](C)/C=C/C(=O)O)O2)O[C@H]1/C=C/C(C)=C/C(=O)O [RM-E]"
  SYSTEM_NAME: "Isoleucyl tRNA synthetase (Homo sapiens)"
  GROUP: "YES"
- COMPOUND: "CCCC[C@@]1(OC(=O)CCC(=O)O)CC[C@]2(CC[C@H](C)[C@@H](C/C=C(C)/C=C/[C@H](O)[C@@H](C)/C=C/C(=O)O)O2)O[C@H]1/C=C/C(C)=C/C(=O)O [RM-A, Reveromycin A]"
  SYSTEM_NAME: "Isoleucyl tRNA synthetase (Homo sapiens)"
  GROUP: "NO"

---

Documented IC50 across a set of compounds
Tested on: tsFT210 cells (mouse breast cancer cells CDC2 temperature sensitive strain)
TEST_PROTOCOL: Growth-inhibiting activity against animal cells (WST-8), tsFT210
Format: cell-based
STATED_CONDITIONS: tsFT210, 48 h, read-out: tsFT210 IC50

- COMPOUND: "CCCCC1CCC2(CCC(C)C(C/C=C(C)/C=C/C(O)C(C)/C=C/C(=O)O)O2)OC1/C=C/C(C)=C/COC(=O)CC (centres unmarked)"
  IC50, µg/mL: 22.3
- COMPOUND: "CCCC[C@@]1(OC(=O)CCC(=O)O)CC[C@]2(CC[C@H](C)[C@@H](C/C=C(C)/C=C/[C@H](O)[C@@H](C)/C=C/C(=O)O)O2)O[C@H]1/C=C/C(C)=C/C(=O)O"
  IC50, µg/mL: 8.5
- COMPOUND: "CCCCC1CCC2(CCC(C)C(C/C=C(C)/C=C/C(O)C(C)/C=C/C(=O)O)O2)OC1/C=C/C(C)=C/CO (centres unmarked)"
  IC50, µg/mL: 6.8
- COMPOUND: "CCCCC1CCC2(CCC(C)C(C/C=C(C)/C=C/C(O)C(C)/C=C/C(=O)O)O2)OC1/C=C/C(C)=C/C(=O)O (centres unmarked)"
  IC50, µg/mL: 0.4
- COMPOUND: "CCCC[C@H]1CC[C@]2(CC[C@H](C)[C@@H](C/C=C(C)/C=C/[C@H](O)[C@@H](C)/C=C/C(=O)OC)O2)O[C@H]1/C=C/C(C)=C/C(=O)O"
  IC50, µg/mL: 8.2
- COMPOUND: "CCCC[C@@]1(OC(=O)CCC(=O)O)CC[C@]2(CC[C@H](C)[C@@H](C/C=C(C)/C=C/[C@H](O)[C@@H](C)/C=C/C(=O)O)O2)O[C@H]1/C=C/C(C)=C/CO"
  IC50, µg/mL: 24.6
- COMPOUND: "CCCCC1CCC2(CCC(C)C(C/C=C(C)/C=C/C(O)C(C)/C=C/C(=O)O)O2)OC1/C=C/C(C)=C/CC(O)CC (centres unmarked)"
  IC50, µg/mL: 6.4
- COMPOUND: "CCCCCC[C@@]1(OC(=O)CCC(=O)O)CC[C@]2(CC[C@H](C)[C@@H](C/C=C(C)/C=C/[C@H](O)[C@@H](C)/C=C/C(=O)O)O2)O[C@H]1/C=C/C(C)=C/C(=O)O"
  IC50, µg/mL: 7
